System: APEC O8
assay text: MIC and MBC determination in M63 media
Assay type: cell-based
condition details: Escherichia coli
property label: MIC (µM)
Reply with just the number (in µM).

**Q:** Any idea what its MIC is? The molecule is COc1cc(CNCCc2ccc(C)cc2)ccc1OCC(O)CN1CCCC1 (stereo not shown)
**A:** 100

**Q:** Param item: CC1CCCN(CCC(=O)c2ccc(Br)cc2)C1 (stereo not shown)
**A:** 200

**Q:** What do you have for `COc1ccc(CCN(Cc2cc3c(cc2Cl)OCO3)CC2CCN(C)CC2)cc1` ?
**A:** 200

New cases:
**Q:** May I ask what MIC has been recorded for COc1cc(CNCCc2ccc3ccccc3c2)ccc1OCC(O)CN1CCCC1 (stereo not shown) ?
**A:** 100

**Q:** Now the molecule CC(=O)OC(C(Br)C(=O)c1ccc([N+](=O)[O-])cc1)C(Cl)(Cl)Cl (stereo not shown)
**A:** 50

**Q:** Proceed to `CCN1/C(=C/c2ccc3ccccc3[n+]2CC)C=Cc2ccccc21`
**A:** 25

**Q:** Let us now turn to CC1CCC(C(C)C)C(OC(=O)Cn2c[n+](CC(=O)OC3CC(C)CCC3C(C)C)c3ccccc32)C1 (stereo not shown)
**A:** 25

###

Test system: APEC O78-53
assay text: MIC and MBC determination in M63 media
Assay type: cell-based
condition details: Escherichia coli; APEC O78-53, M63 media
# MBC per record follows
Give your result in µM as a bare value.

Some compounds with recorded MBC:
**Q:** Give the reported MBC for COc1cc(CNCCc2ccc3ccccc3c2)ccc1OCC(O)CN1CCCC1 (stereo not shown) (system: APEC O78-53).
**A:** 200

**Q:** Let us now turn to CC1CCCN(CCC(=O)c2ccc(Br)cc2)C1 (stereo not shown)
**A:** 200

**Q:** Repeat for the following compound: COc1cc(CNCCc2ccc(C)cc2)ccc1OCC(O)CN1CCCC1 (stereo not shown)
**A:** 200

// below: MBC requested for another compound
**Q:** Record lookup: for APEC O78-53, what MBC belongs to CC1CCC(C(C)C)C(OC(=O)Cn2c[n+](CC(=O)OC3CC(C)CCC3C(C)C)c3ccccc32)C1 (stereo not shown) ?
**A:** 50

###

Tested on: intracellular APEC O78 in THP-1 cells
assay text: Intracellular survival assay
Assay type: cell-based, Escherichia coli
condition details: Escherichia coli; O78, THP-1, 6 h treatment; read-out: SMs intracellular APEC clearance concentration
property label: minimal effective concentration (µM)
Your answer is read as µM, so omit the unit and give the number.

**Q:** Could you share which minimal effective concentration value was measured for CC(=O)OC(C(Br)C(=O)c1ccc([N+](=O)[O-])cc1)C(Cl)(Cl)Cl (stereo not shown) ?
**A:** 100

**Q:** What would you report for `CCN1/C(=C/c2ccc3ccccc3[n+]2CC)C=Cc2ccccc21` ?
**A:** 50

**Q:** Now consider `COc1ccc(CCN(Cc2cc3c(cc2Cl)OCO3)CC2CCN(C)CC2)cc1` and answer again.
**A:** 100

**Q:** What do you have for CC1CCC(C(C)C)C(OC(=O)Cn2c[n+](CC(=O)OC3CC(C)CCC3C(C)C)c3ccccc32)C1 (stereo not shown) ?
**A:** 50

Others:
**Q:** What does the record list as minimal effective concentration for CC1CCCN(CCC(=O)c2ccc(Br)cc2)C1 (stereo not shown) ?
**A:** 200

**Q:** Let us now turn to COc1cc(CNCCc2ccc3ccccc3c2)ccc1OCC(O)CN1CCCC1 (stereo not shown)
**A:** 100

**Q:** Now the same for COc1cc(CNCCc2ccc(C)cc2)ccc1OCC(O)CN1CCCC1 (stereo not shown)
**A:** 100
